For each record, write down the corresponding inhibition (INH).
# test-summary: Antioxidant activity assessed as DPPH radical scavenging activity incubated for 10 mins by UV-visible spectrometry; further: test concentration or dose not given here
# Type: physicochemical
Kindly answer with a numeric value in %, unit omitted.

Qu. Param item = `COc1ccc(-c2nc3sc(-c4ccc(C)cc4)nn3c2-c2nc3ccccc3[nH]2)cc1` ; retrieve measured inhibition (INH).
Ans. 21.6

Qu. Param item = `Cc1nn2c(-c3nc4cc([N+](=O)[O-])ccc4[nH]3)c(-c3ccc(F)cc3)nc2s1` ; retrieve measured inhibition (INH).
Ans. 25.9

Qu. Param item = `Cc1ccc(-c2nn3c(-c4nc5ccccc5[nH]4)c(-c4ccc(Cl)cc4)nc3s2)cc1` ; retrieve measured inhibition (INH).
Ans. 18.8

Qu. Param item = `Cc1ccc(-c2nc3sc(C)nn3c2-c2nc3cc([N+](=O)[O-])ccc3[nH]2)cc1` ; retrieve measured inhibition (INH).
Ans. 28.9

Qu. Param item = `COc1ccc(-c2nc3sc(-c4ccc(F)cc4)nn3c2-c2nc3cc([N+](=O)[O-])ccc3[nH]2)cc1` ; retrieve measured inhibition (INH).
Ans. 30.8

Qu. Param item = `COc1ccc(-c2nc3sc(-c4ccc(Cl)cc4)nn3c2-c2nc3ccccc3[nH]2)cc1` ; retrieve measured inhibition (INH).
Ans. 20.9

Qu. Param item = `COc1ccc(-c2nc3sc(-c4ccc(C)cc4)nn3c2-c2nc3cc(Cl)ccc3[nH]2)cc1` ; retrieve measured inhibition (INH).
Ans. 31.3

Qu. Param item = Cc1cc(C(C)(C)C)c(O)c(C(C)(C)C)c1 [BUTYLATED HYDROXYTOLUENE] ; retrieve measured inhibition (INH).
Ans. 88.6

Qu. Param item = `Cc1ccc(-c2nn3c(-c4nc5ccccc5[nH]4)c(-c4ccc(F)cc4)nc3s2)cc1` ; retrieve measured inhibition (INH).
Ans. 22.6

Qu. Param item = `Cc1ccc(-c2nc3sc(C)nn3c2-c2nc3cc(Cl)ccc3[nH]2)cc1` ; retrieve measured inhibition (INH).
Ans. 30.6

Qu. Param item = `Cc1nn2c(-c3nc4cc(Cl)ccc4[nH]3)c(-c3ccc(Cl)cc3)nc2s1` ; retrieve measured inhibition (INH).
Ans. 78.8

Qu. Param item = `Cc1ccc(-c2nc3sc(-c4ccc(Cl)cc4)nn3c2-c2nc3cc([N+](=O)[O-])ccc3[nH]2)cc1` ; retrieve measured inhibition (INH).
Ans. 26.3

Qu. Param item = `COc1ccc(-c2nc3sc(-c4ccccc4)nn3c2-c2nc3cc([N+](=O)[O-])ccc3[nH]2)cc1` ; retrieve measured inhibition (INH).
Ans. 23.4

Qu. Param item = `Cc1ccc(-c2nc3sc(-c4ccc(Cl)cc4)nn3c2-c2nc3cc(Cl)ccc3[nH]2)cc1` ; retrieve measured inhibition (INH).
Ans. 31.9

Qu. Param item = `COc1ccc(-c2nc3sc(-c4ccc(C)cc4)nn3c2-c2nc3cc([N+](=O)[O-])ccc3[nH]2)cc1` ; retrieve measured inhibition (INH).
Ans. 25.1

Qu. Param item = `COc1ccc(-c2nc3sc(-c4ccc(F)cc4)nn3c2-c2nc3ccccc3[nH]2)cc1` ; retrieve measured inhibition (INH).
Ans. 25.4

Qu. Param item = `Fc1ccc(-c2nc3sc(-c4ccc(Cl)cc4)nn3c2-c2nc3ccccc3[nH]2)cc1` ; retrieve measured inhibition (INH).
Ans. 21.7

Qu. Param item = `Cc1ccc(-c2nc3sc(-c4ccc(Cl)cc4)nn3c2-c2nc3ccccc3[nH]2)cc1` ; retrieve measured inhibition (INH).
Ans. 45.7

Qu. Param item = `COc1ccc(-c2nc3sc(-c4ccc(F)cc4)nn3c2-c2nc3cc(Cl)ccc3[nH]2)cc1` ; retrieve measured inhibition (INH).
Ans. 38.6

Qu. Param item = `Cc1ccc(-c2nc3sc(C)nn3c2-c2nc3ccccc3[nH]2)cc1` ; retrieve measured inhibition (INH).
Ans. 28.6

Qu. Param item = `Cc1ccc(-c2nn3c(-c4nc5cc(Cl)ccc5[nH]4)c(-c4ccc(Cl)cc4)nc3s2)cc1` ; retrieve measured inhibition (INH).
Ans. 65.7

Qu. Param item = `Cc1nn2c(-c3nc4ccccc4[nH]3)c(-c3ccc(Cl)cc3)nc2s1` ; retrieve measured inhibition (INH).
Ans. 28.8

Qu. Param item = `Cc1ccc(-c2nn3c(-c4nc5cc([N+](=O)[O-])ccc5[nH]4)c(-c4ccc(Cl)cc4)nc3s2)cc1` ; retrieve measured inhibition (INH).
Ans. 21.8

Qu. Param item = `Cc1nn2c(-c3nc4ccccc4[nH]3)c(-c3ccc(F)cc3)nc2s1` ; retrieve measured inhibition (INH).
Ans. 19.9

Qu. Param item = `Cc1nn2c(-c3nc4cc(Cl)ccc4[nH]3)c(-c3ccc(F)cc3)nc2s1` ; retrieve measured inhibition (INH).
Ans. 39.5

Qu. Param item = `COc1ccc(-c2nc3sc(-c4ccccc4Cl)nn3c2-c2nc3cc([N+](=O)[O-])ccc3[nH]2)cc1` ; retrieve measured inhibition (INH).
Ans. 22.1

Qu. Param item = `Cc1nn2c(-c3nc4cc([N+](=O)[O-])ccc4[nH]3)c(-c3ccc(Cl)cc3)nc2s1` ; retrieve measured inhibition (INH).
Ans. 29.8

Qu. Param item = `COc1ccc(-c2nc3sc(C)nn3c2-c2nc3ccccc3[nH]2)cc1` ; retrieve measured inhibition (INH).
Ans. 21.4

Qu. Param item = `Cc1ccc(-c2nn3c(-c4nc5cc([N+](=O)[O-])ccc5[nH]4)c(-c4ccc(F)cc4)nc3s2)cc1` ; retrieve measured inhibition (INH).
Ans. 22.3

Qu. Param item = `COc1ccc(-c2nc3sc(C)nn3c2-c2nc3cc([N+](=O)[O-])ccc3[nH]2)cc1` ; retrieve measured inhibition (INH).
Ans. 22.6
